Test system: ATP;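 note: ATP exposure 15 min at 22 °C before imaging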
Test: switch fluorescence ratio, 500 uM ATP over buffer (Cy3 cluster intensity, sum of 5 cycles each) (fold (ratio)); higher = stronger signal-on switching upon ATP binding; sequences stand for … in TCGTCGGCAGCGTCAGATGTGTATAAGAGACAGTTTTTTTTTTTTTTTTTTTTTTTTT…TC
Conditions: aptamer strand: ATP DNA aptamer (quencher-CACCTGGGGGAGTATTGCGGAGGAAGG + anchor), 100 nM annealed; ATP concentration: 500 uM
recordedMetric: switch fluorescence ratio
API doc: respond with a numeric literal and nothing else, no unit.

INSERT INTO results (chainsequence, measuredtarget, valuereported) VALUES
  ('CGTAGCGTCC', 'ATP', 1.13),
  ('TTTTCAAATA', 'ATP', 1.01),
  ('GGGGGTAGAC', 'ATP', 1.01),
  ('GGGTGAACTT', 'ATP', 0.988),
  ('TTGGGGGAAC', 'ATP', 1);

Req: Could you share which switch fluorescence ratio value was measured for `CCGGGCGTCG` ?
Resp: 1.26

Req: Could you share which switch fluorescence ratio value was measured for `GGGTGTTAAC` ?
Resp: 0.981

Req: Could you share which switch fluorescence ratio value was measured for `CACTGTGTGG` ?
Resp: 0.987

Req: Could you share which switch fluorescence ratio value was measured for `TGATCAAATG` ?
Resp: 0.989

Req: Could you share which switch fluorescence ratio value was measured for `TGTAGGGGGA` ?
Resp: 0.999

Req: Could you share which switch fluorescence ratio value was measured for `TTTGGTGGGG` ?
Resp: 1.01

Req: Could you share which switch fluorescence ratio value was measured for `TATAGGGTTT` ?
Resp: 1.07

* * *

System: ATP;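 note: ATP exposure 15 min at 22 °C before imaging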
Assay: switch fluorescence ratio, 500 uM ATP over buffer (Cy3 cluster intensity, sum of 5 cycles each) (fold (ratio)); higher = stronger signal-on switching upon ATP binding; sequences stand for … in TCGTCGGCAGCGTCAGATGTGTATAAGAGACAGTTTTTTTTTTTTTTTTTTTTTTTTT…TC
Conditions: aptamer strand: ATP DNA aptamer (quencher-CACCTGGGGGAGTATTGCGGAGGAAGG + anchor), 100 nM annealed; ATP concentration: 500 uM
Below: a set of entries, each annotated with reported switch fluorescence ratio.
API doc: respond with a numeric literal and nothing else, no unit.

// worked examples, switch fluorescence ratio included
INSERT INTO measurements (chainsequence, recordedmetric, valuereported) VALUES
  ('GATAGTATTT', 'switch fluorescence ratio', 1),
  ('CGGCTAGGGT', 'switch fluorescence ratio', 0.998),
  ('GGCGGAGTAT', 'switch fluorescence ratio', 1),
  ('TAGAATGGC', 'switch fluorescence ratio', 1.01),
  ('TGGTAGGGG', 'switch fluorescence ratio', 1.01);

Req: Could you share which switch fluorescence ratio value was measured for `TGAAATATGG` ?
Resp: 1

Req: Could you share which switch fluorescence ratio value was measured for `TTGGGGGATC` ?
Resp: 0.982

Req: Could you share which switch fluorescence ratio value was measured for `GGAGAGAAAG` ?
Resp: 0.987

Req: Could you share which switch fluorescence ratio value was measured for `TGTTAAATTT` ?
Resp: 1.01

Req: Could you share which switch fluorescence ratio value was measured for `GAGCGAGCTC` ?
Resp: 0.988

Req: Could you share which switch fluorescence ratio value was measured for `ATGCGAATAT` ?
Resp: 0.989

Req: Could you share which switch fluorescence ratio value was measured for `GAATCAAAAA` ?
Resp: 1

Req: Could you share which switch fluorescence ratio value was measured for `ATTACGGTCA` ?
Resp: 1.02

Req: Could you share which switch fluorescence ratio value was measured for `GGTCACGGCA` ?
Resp: 1

Req: Could you share which switch fluorescence ratio value was measured for `CCGAGAGGGG` ?
Resp: 0.999

* * *

Below: a set of entries, each annotated with reported switch fluorescence ratio.
Tested on: ATP;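 note: ATP exposure 15 min at 22 °C before imaging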
Assay: switch fluorescence ratio, 500 uM ATP over buffer (Cy3 cluster intensity, sum of 5 cycles each) (fold (ratio)); higher = stronger signal-on switching upon ATP binding; sequences stand for … in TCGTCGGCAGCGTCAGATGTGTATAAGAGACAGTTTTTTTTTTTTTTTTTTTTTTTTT…TC
Settings: aptamer strand: ATP DNA aptamer (quencher-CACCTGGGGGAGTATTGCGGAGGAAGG + anchor), 100 nM annealed; ATP concentration: 500 uM

INSERT INTO assay_data (chainsequence, recordedmetric, valuereported) VALUES
  ('CGTGGTTGTC', 'switch fluorescence ratio', 0.987),
  ('TCATGAACTT', 'switch fluorescence ratio', 1.07),
  ('TTATTCTTTT', 'switch fluorescence ratio', 1),
  ('GCGAGACTGT', 'switch fluorescence ratio', 1.07);

Alright, here's another sequence for you.
Req: Could you share which switch fluorescence ratio value was measured for `TGGATGATGG` ?
Resp: 0.961

* * *

Test system: ATP;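 note: ATP exposure 15 min at 22 °C before imaging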
Test: switch fluorescence ratio, 500 uM ATP over buffer (Cy3 cluster intensity, sum of 5 cycles each) (fold (ratio)); higher = stronger signal-on switching upon ATP binding; sequences stand for … in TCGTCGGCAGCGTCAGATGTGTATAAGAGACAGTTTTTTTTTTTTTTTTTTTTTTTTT…TC
Settings: aptamer strand: ATP DNA aptamer (quencher-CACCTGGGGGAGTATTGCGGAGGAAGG + anchor), 100 nM annealed; ATP concentration: 500 uM
Below: a set of entries, each annotated with reported switch fluorescence ratio.
API doc: respond with a numeric literal and nothing else, no unit.

INSERT INTO results (chainsequence, valuereported) VALUES
  ('TGGGCGGGGA', 1.03);

Req: Could you share which switch fluorescence ratio value was measured for `AGTTGTGGAG` ?
Resp: 0.986

Req: Could you share which switch fluorescence ratio value was measured for `TTGCTAATGC` ?
Resp: 1.18

Req: Could you share which switch fluorescence ratio value was measured for `AGGGTGGGGG` ?
Resp: 1.03

* * *

Tested on: ATP;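 note: ATP exposure 15 min at 22 °C before imaging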
Experiment: switch fluorescence ratio, 500 uM ATP over buffer (Cy3 cluster intensity, sum of 5 cycles each) (fold (ratio)); higher = stronger signal-on switching upon ATP binding; sequences stand for … in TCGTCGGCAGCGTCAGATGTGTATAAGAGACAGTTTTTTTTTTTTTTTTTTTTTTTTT…TC
Conditions: aptamer strand: ATP DNA aptamer (quencher-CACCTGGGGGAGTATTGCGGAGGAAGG + anchor), 100 nM annealed; ATP concentration: 500 uM
recordedMetric: switch fluorescence ratio
API doc: respond with a numeric literal and nothing else, no unit.

// worked examples, switch fluorescence ratio included
INSERT INTO assay_data (chainsequence, recordedmetric, valuereported) VALUES
  ('GGTTCGTGTC', 'switch fluorescence ratio', 0.974),
  ('CCGGGGGCGG', 'switch fluorescence ratio', 1.01),
  ('AGGGGGGACT', 'switch fluorescence ratio', 0.993),
  ('TTAATCCAGT', 'switch fluorescence ratio', 1.02),
  ('TTAGTCAGGA', 'switch fluorescence ratio', 1.04),
  ('AGAGAACGCT', 'switch fluorescence ratio', 0.967),
  ('GGGGCTGCGC', 'switch fluorescence ratio', 1.05),
  ('GCATTAATGG', 'switch fluorescence ratio', 1.04);

Req: Give ATP switch fluorescence ratio for `GGCACTGGAT`
Resp: 1.02

Req: Give ATP switch fluorescence ratio for `CGCGTTTCCC`
Resp: 1.27

Req: Give ATP switch fluorescence ratio for `TCTCGTGAGA`
Resp: 0.997

Req: Give ATP switch fluorescence ratio for `AAGGCAGGGC`
Resp: 0.972

Req: Give ATP switch fluorescence ratio for `AACGTTAGGA`
Resp: 1.03

* * *

Test system: ATP;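 note: ATP exposure 15 min at 22 °C before imaging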
Assay: switch fluorescence ratio, 500 uM ATP over buffer (Cy3 cluster intensity, sum of 5 cycles each) (fold (ratio)); higher = stronger signal-on switching upon ATP binding; sequences stand for … in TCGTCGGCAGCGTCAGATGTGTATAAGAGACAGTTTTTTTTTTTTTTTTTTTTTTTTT…TC
Settings: aptamer strand: ATP DNA aptamer (quencher-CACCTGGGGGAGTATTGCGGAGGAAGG + anchor), 100 nM annealed; ATP concentration: 500 uM
Below: a set of entries, each annotated with reported switch fluorescence ratio.
API doc: respond with a numeric literal and nothing else, no unit.

INSERT INTO measurements (chainsequence, measuredtarget, valuereported) VALUES
  ('GATCCGGCGT', 'ATP', 1.03),
  ('CTATTTTGAT', 'ATP', 0.979),
  ('ATCTTAGTGC', 'ATP', 1),
  ('ATTATGATGC', 'ATP', 0.992),
  ('TAGGGGGTTC', 'ATP', 1.01),
  ('GGTACTGGTA', 'ATP', 0.984);

Req: Could you share which switch fluorescence ratio value was measured for `CGGTGACTGA` ?
Resp: 0.957

* * *

Test system: ATP;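 note: ATP exposure 15 min at 22 °C before imaging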
Assay: switch fluorescence ratio, 500 uM ATP over buffer (Cy3 cluster intensity, sum of 5 cycles each) (fold (ratio)); higher = stronger signal-on switching upon ATP binding; sequences stand for … in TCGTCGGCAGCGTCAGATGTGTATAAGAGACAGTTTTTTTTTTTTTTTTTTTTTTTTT…TC
Conditions: aptamer strand: ATP DNA aptamer (quencher-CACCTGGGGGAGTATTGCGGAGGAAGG + anchor), 100 nM annealed; ATP concentration: 500 uM
Below: a set of entries, each annotated with reported switch fluorescence ratio.

// worked examples, switch fluorescence ratio included
INSERT INTO results (chainsequence, recordedmetric, valuereported) VALUES
  ('CGGCAGGGGA', 'switch fluorescence ratio', 1.05),
  ('AAAACCGAAA', 'switch fluorescence ratio', 1.11),
  ('TCTGGTGCAT', 'switch fluorescence ratio', 1.17);

Alright, here's another sequence for you.
Req: Could you share which switch fluorescence ratio value was measured for `GTGAGCCAGT` ?
Resp: 1.01
